Biological target: GIRK4 homomeric channel (GIRK4, G4) (Homo sapiens, UniProt P48544)
Construct: full-length GIRK4 in pGEMSH vector, homotetramer, expressed in Xenopus laevis oocytes
Sequence (P48544 whole entry): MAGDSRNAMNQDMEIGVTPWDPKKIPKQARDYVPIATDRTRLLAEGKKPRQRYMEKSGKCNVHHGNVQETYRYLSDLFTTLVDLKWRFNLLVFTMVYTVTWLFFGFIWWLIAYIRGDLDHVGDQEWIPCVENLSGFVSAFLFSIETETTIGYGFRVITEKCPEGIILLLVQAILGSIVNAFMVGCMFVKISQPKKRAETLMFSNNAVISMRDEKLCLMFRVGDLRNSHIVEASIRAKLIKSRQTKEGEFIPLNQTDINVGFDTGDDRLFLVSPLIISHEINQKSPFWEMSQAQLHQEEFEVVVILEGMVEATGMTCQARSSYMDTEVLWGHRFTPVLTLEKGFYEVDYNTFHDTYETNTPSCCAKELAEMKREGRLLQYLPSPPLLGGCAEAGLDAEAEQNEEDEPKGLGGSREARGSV
Assay: two-electrode voltage clamp, Xenopus oocytes
pEC50: −log10 of the molar value.

>  <COMPOUND>
COc1ccc(C(=O)CC2(O)C(=O)N(Cc3cccc4ccccc34)c3ccccc32)cc1OC (stereo not shown)

>  <SYSTEM NAME>
GIRK4 homomeric channel (GIRK4, G4) (Homo sapiens, UniProt P48544)

>  <pEC50>
4.89

$$$$

Each recorded value in this set is attributed to paper PMC9194863.
